Target: T1, Human recombinant soluble TWEAK (human, UniProt O43508 99-249, limits assumed)
T1 sequence (looked up): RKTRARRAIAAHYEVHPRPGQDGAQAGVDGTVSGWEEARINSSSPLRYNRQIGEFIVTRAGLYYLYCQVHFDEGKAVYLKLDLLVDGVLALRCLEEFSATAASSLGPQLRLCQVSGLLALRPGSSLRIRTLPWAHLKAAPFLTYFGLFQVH
Test: cell-based or functional assay
Cut-off 0.2 µg/mL on IL-8 Secretion IC50: below means Condition met, at or above means Condition not met.

Example entries and their recorded answers appear below.
1) Antibody 20 (antibody, V domains shown) VH: QVQLQESGPGLVKPSETLSLTCAVSGYSIRSGYWWSWIRQQPGKGLEWIGQIYNKGNTDNSPSLKSQVTISVDTSKNQFSLKLSSVTAADTAVYYCARVFWDDAYFDVWGQGTMVTVSS VL: EIVLTQSPATLSLSPGERATLSCKASQSVSIGPIHLMHWYQQKPGQAPRLLIYGASNPESGIPARFSGSGSGTDFTLTISSLEPEDFAVYYCQQGKESPRTFGQGTKLEIK    Condition not met
2) Antibody 19 (antibody, V domains shown) VH: QVQLQESGPGLVKPSETLSLTCAVSGYSIRSGYWWSWIRQQPGKGLEWIGQIYNKGNTDNNPALKSQVTISVDTSKNQFSLKLSSVTAADTAVYYCARVFWDDAYFDVWGQGTMVTVSS VL: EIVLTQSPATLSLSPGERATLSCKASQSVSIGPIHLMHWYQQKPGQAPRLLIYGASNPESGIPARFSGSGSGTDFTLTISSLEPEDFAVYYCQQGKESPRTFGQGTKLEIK    Condition not met

[in] Please indicate whether the reported IL-8 Secretion IC50 of TW202 (antibody, V domains shown, Armenian hamster monoclonal antibody; also called Antibody 202) VH: QLQLQESGLGLVKPSQSLTLTCSVTGFSITTPDYSWHWIRQLPGQTLEWMGFLYYEGDTYYNPSLKSRISIARDASKNQFFLQLKAVTTEDTATYFCARRKYSGYGNWFAYWGQGTLVTVSL VL: QPVLTQSPSASASLRASVKLTCTLSSQHSTYYIEWYQQRPDKAPKYVMYLDSDGSHIKGDGIPDRFSGSSSGAHRYLSISNLQPEDEAIYHCGVYDSTAGAVFGSGTQLTVLG is strictly below 0.2 µg/mL.
[out] Condition met

[in] Follow-up entry: Antibody 26 (antibody, V domains shown) VH: QVQLQESGPGLVKPSETLSLTCAVSGYSIRSGYWWSWIRQQPGKGLEWIGQIYNKGNTDNSPSLKSQVTISVDTSKNQFSLKLSSVTAADTAVYYCARVFWDDAYFDVWGQGTMVTVSS VL: EIVLTQSPGTLSLSPGERATLSCKASQSVSIGPIHLMHWYQQKPGQAPRLLIYGASNPESGIPDRFSGSGSGTDFTLTISRLEPEDFAVYYCQQGKESPRTFGQGTKLEIK
[out] Condition not met

[in] Follow-up entry: Antibody 25 (antibody, V domains shown) VH: QVQLQESGPGLVKPSETLSLTCAVSGYSIRSGYWWSWIRQQPGKGLEWIGQIYNKGNTDNNPALKSQVTISVDTSKNQFSLKLSSVTAADTAVYYCARVFWDDAYFDVWGQGTMVTVSS VL: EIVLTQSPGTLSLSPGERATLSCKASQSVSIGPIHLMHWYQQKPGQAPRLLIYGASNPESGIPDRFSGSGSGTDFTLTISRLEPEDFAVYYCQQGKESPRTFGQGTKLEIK
[out] Condition not met
